// provenance: ChEMBL document CHEMBL4725463

- assay-notes: Cytotoxicity against human SK-N-BE(2)-M17 cells
- Type: cell-based
value-kind: CC50

1. CC1=CC(C)(C)Nc2c(C(=O)N[C@H](/C=C/S(C)(=O)=O)Cc3ccccc3)cccc21    > 38 µM
2. C[C@@H]1CC(C)(C)Nc2c(C(=O)N[C@@H](C)/C=C/S(C)(=O)=O)cccc21    > 25 µM
3. CN1CCN(C)/C(=N\c2ccc([N+](=O)[O-])cc2C(=O)Nc2ccccc2)C1    > 2.25 µM
4. C[C@@H]1CC(C)(C)Nc2c(C(=O)NC/C=C/S(C)(=O)=O)cccc21    > 25 µM
5. C[C@@H]1CC(C)(C)Nc2c(C(=O)N[C@H](/C=C/S(C)(=O)=O)Cc3ccccc3)cccc21    > 50 µM
6. CC1=CC(C)(C)Nc2c(C(=O)N[C@@H](C)/C=C/S(C)(=O)=O)cccc21    > 25 µM
